SYSTEM NAME: Bovine trypsin (Bos taurus, UniProt P00760)
Construct: purchased Sigma-Aldrich T1426
Sequence (P00760 24-246): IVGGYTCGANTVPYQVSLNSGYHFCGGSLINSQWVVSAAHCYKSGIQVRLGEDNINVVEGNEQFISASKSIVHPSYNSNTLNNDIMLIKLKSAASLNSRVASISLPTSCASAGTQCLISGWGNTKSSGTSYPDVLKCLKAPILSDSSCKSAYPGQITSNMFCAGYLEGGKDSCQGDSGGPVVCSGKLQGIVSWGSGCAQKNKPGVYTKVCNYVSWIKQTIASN
TEST PROTOCOL: Biochemical Assay of Trypsin (T), H-D-CHA-AR-AMC substrate
CONDITION SUMMARY: compound 1 μM, 15 μM substrate, 0.025 nM Trypsin
Catalogue of inhibition at 1 µM readings, one per entry.

MOLECULE	SYSTEM NAME	DISPLAY UNIT	inhibition at 1 µM
Cc1cc(C(=O)Oc2ccc(CC(=O)O)n3ncnc23)ccc1NC(=N)N	Bovine trypsin (Bos taurus, UniProt P00760)	%	8.4
CS(=O)(=O)NC(=O)Cc1ccc(OC(=O)c2ccc(NC(=N)N)cc2)c2ncnn12	Bovine trypsin (Bos taurus, UniProt P00760)	%	100
Cc1cc(NC(=N)N)ccc1C(=O)Oc1ccc(CC(=O)O)n2ncnc12	Bovine trypsin (Bos taurus, UniProt P00760)	%	48.9
N=C(N)Nc1ccc(C(=O)Oc2ccc(CC(=O)NC(CCC(=O)O)(CCC(=O)O)CCC(=O)O)n3ncnc23)cc1	Bovine trypsin (Bos taurus, UniProt P00760)	%	100
N=C(N)Nc1ccc(C(=O)Oc2ccc(Cc3nn[nH]n3)n3ncnc23)cc1	Bovine trypsin (Bos taurus, UniProt P00760)	%	100
C#CCOCCOCC#Cc1cc(NC(=N)N)ccc1C(=O)Oc1ccc(CC(=O)O)n2ncnc12	Bovine trypsin (Bos taurus, UniProt P00760)	%	99.6
CNC(=N)Nc1ccc(C(=O)Oc2ccc(CC(=O)O)n3ncnc23)cc1	Bovine trypsin (Bos taurus, UniProt P00760)	%	57.1
N=C(N)Nc1ncc(C(=O)Oc2ccc(CC(=O)NC(CC(=O)O)C(=O)O)n3ncnc23)cn1 (centres unmarked)	Bovine trypsin (Bos taurus, UniProt P00760)	%	99.9
N#CNC(=N)c1ccc(C(=O)Oc2ccc(CC(=O)O)n3ncnc23)cc1	Bovine trypsin (Bos taurus, UniProt P00760)	%	2.5
N=C(N)Nc1ccc(C(=O)Oc2ccc(CC(=O)O)n3ncnc23)cc1O	Bovine trypsin (Bos taurus, UniProt P00760)	%	73.1
N=C(N)Nc1ccc(C(=O)Oc2ccc(C3OC(=O)NC3=O)n3ncnc23)cc1 (centres unmarked)	Bovine trypsin (Bos taurus, UniProt P00760)	%	100
CONC(=N)c1ccc(C(=O)Oc2ccc(CC(=O)O)n3ncnc23)cc1	Bovine trypsin (Bos taurus, UniProt P00760)	%	-3.3
N=C(N)Nc1ccc(C(=O)Oc2ccc(CC(=O)NC(CC(=O)O)C(=O)O)n3ncnc23)cc1 (centres unmarked)	Bovine trypsin (Bos taurus, UniProt P00760)	%	100
N=C(N)Nc1ccc(C(=O)Oc2ccc(CC(=O)O)n3ncnc23)cc1F	Bovine trypsin (Bos taurus, UniProt P00760)	%	100
N=C(N)Nc1ccc(C(=O)Oc2ccc(CC(=O)NC(CC(=O)O)C(=O)O)n3ccnc23)cc1 (centres unmarked)	Bovine trypsin (Bos taurus, UniProt P00760)	%	100
N=C(N)Nc1ccc(C(=O)Oc2ccc(CC(=O)O)n3ncnc23)c(F)c1	Bovine trypsin (Bos taurus, UniProt P00760)	%	99.7
N=C(N)Nc1ncc(C(=O)Oc2ccc(CC(=O)NC(CC(=O)O)C(=O)O)n3ccnc23)cn1 (centres unmarked)	Bovine trypsin (Bos taurus, UniProt P00760)	%	99.9

---

SYSTEM NAME: Bovine trypsin (Bos taurus, UniProt P00760)
Construct: purchased Sigma-Aldrich T1426
TEST PROTOCOL: Biochemical Assay of Trypsin (T), H-D-CHA-AR-AMC substrate
CONDITION SUMMARY: compound 1 μM, 15 μM substrate, 0.025 nM Trypsin

COMPOUND STRUCTURE STRING	inhibition at 1 µM / %
N=C(N)Nc1ccc(C(=O)Oc2ccc(CCC(=O)O)n3ncnc23)cc1	100
N=C1NCCN1c1ccc(C(=O)Oc2ccc(CC(=O)O)n3ncnc23)cc1	58.3
CNC(=N)c1ccc(C(=O)Oc2ccc(CC(=O)O)n3ncnc23)cc1	8.7
N=C(N)Nc1ccc(C(=O)Oc2cc(CCC(=O)O)cn3ncnc23)cc1	100
N=C(N)Nc1ccc(C(=O)Oc2ccc(CC(=O)O)n3ncnc23)cc1I	7.6
N=C(N)Nc1ncc(C(=O)Oc2ccc(CC(=O)O)n3ccnc23)cn1	99.7
CC(=N)Nc1ccc(C(=O)Oc2ccc(CC(=O)O)n3ncnc23)cc1	68
COc1cc(C(=O)Oc2ccc(CC(=O)O)n3ncnc23)ccc1NC(=N)N	72.4
N=C(N)Nc1ccc(C(=O)Oc2ccc(CC(=O)O)n3ncnc23)c(Cl)c1	97.6

---

Here the recorded inhibition at 1 µM is given for each entry.
SYSTEM NAME: Recombinant full-length human EP (Enteropeptidase) (Homo sapiens)
Construct: Recombinant full-length human EP (PeproTech, Cat #450-48C); purchased PeproTech 450-48C
Sequence (P98073 whole entry): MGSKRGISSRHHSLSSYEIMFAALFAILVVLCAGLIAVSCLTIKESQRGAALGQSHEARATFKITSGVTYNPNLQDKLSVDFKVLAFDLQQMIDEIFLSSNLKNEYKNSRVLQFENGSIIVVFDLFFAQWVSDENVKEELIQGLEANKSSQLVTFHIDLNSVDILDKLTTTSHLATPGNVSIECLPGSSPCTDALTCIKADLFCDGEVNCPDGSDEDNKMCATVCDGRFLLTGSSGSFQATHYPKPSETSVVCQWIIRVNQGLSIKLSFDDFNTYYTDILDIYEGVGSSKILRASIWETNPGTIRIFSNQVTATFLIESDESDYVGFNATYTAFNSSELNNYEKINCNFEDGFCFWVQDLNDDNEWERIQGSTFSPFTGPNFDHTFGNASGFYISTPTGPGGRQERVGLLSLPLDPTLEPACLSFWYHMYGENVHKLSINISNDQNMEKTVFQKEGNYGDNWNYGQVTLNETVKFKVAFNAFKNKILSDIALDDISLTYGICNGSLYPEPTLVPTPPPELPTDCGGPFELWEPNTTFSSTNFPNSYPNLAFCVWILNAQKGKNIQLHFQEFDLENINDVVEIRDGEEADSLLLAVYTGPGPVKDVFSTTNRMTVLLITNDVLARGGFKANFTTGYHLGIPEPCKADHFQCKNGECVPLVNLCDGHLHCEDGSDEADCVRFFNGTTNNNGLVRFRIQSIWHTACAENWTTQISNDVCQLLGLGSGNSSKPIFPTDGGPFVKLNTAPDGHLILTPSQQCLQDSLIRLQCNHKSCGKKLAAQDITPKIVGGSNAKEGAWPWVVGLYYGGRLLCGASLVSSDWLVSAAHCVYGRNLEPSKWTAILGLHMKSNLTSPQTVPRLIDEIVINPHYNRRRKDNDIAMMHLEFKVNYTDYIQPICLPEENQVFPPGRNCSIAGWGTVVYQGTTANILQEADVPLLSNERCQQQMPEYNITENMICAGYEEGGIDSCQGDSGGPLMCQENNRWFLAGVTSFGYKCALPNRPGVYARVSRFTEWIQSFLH
TEST PROTOCOL: In vitro inhibition potencies against Enteropeptidase (EP), fluorescent peptide GDDDDK-naphthylamine substrate
Assay type: biochemical
CONDITION SUMMARY: compound 1 μM, 300 μM substrate, 1.25 nM EP

COMPOUND	inhibition at 1 µM, %
Cc1cc(NC(=N)N)ccc1C(=O)Oc1ccc(CC(=O)O)n2ncnc12	59.9
N=C(N)Nc1ccc(C(=O)Oc2ccc(CC(=O)O)n3ncnc23)c(F)c1	100
N#CNC(=N)c1ccc(C(=O)Oc2ccc(CC(=O)O)n3ncnc23)cc1	1.9
CN(C(=N)N)c1ccc(C(=O)Oc2ccc(CC(=O)O)n3ncnc23)cc1	93.8
N=C(N)Nc1ncc(C(=O)Oc2ccc(CC(=O)NC(CC(=O)O)C(=O)O)n3ccnc23)cn1 (stereo not drawn)	99.7
N=C(N)Nc1ccc(C(=O)Oc2ccc(CC(=O)O)n3ncnc23)cc1Cl	84.4

---

SYSTEM NAME: Bovine trypsin (Bos taurus)
Construct: purchased Sigma-Aldrich T1426
TEST PROTOCOL: Biochemical Assay of Trypsin (T), H-D-CHA-AR-AMC substrate
CONDITION SUMMARY: compound 1 μM, 15 μM substrate, 0.025 nM Trypsin
# Lookup of reported inhibition at 1 µM keyed by entry
ASSAY ENDPOINT: inhibition at 1 µM (%)

MOLECULE	ENDPOINT RESULT
N=C(N)Nc1ccc(C(=O)Oc2ccc(CC(=O)O)n3ccnc23)cc1 [Compound 9]	101
CN(C(=N)N)c1ccc(C(=O)Oc2ccc(CC(=O)O)n3ncnc23)cc1 [Compound 35]	89.2
N=C(N)Nc1ccc(C(=O)Oc2ccc(CC(=O)O)n3ncnc23)c(C(F)(F)F)c1 [Compound 20]	16.6
N=C(N)Nc1ccc(C(=O)Oc2ccc(CC(=O)O)n3ncnc23)cc1 [Compound 1]	100
N=C(N)Nc1ccc(C(=O)Oc2ccc(CCC(=O)O)n3ccnc23)cc1 [Compound 2]	100
N=C(N)Nc1ccc(C(=O)Oc2ccc(CC(=O)NCC(=O)O)n3ncnc23)cc1 [Compound 4]	100
N=C(N)Nc1ccc(C(=O)Oc2ccc(CC(=O)O)n3ncnc23)c2ccoc12 [Compound 24]	80
N=C(N)Nc1ccc(C(=O)Oc2ccc(CC(=O)O)n3ncnc23)cc1Cl [Compound 16]	56.6
C/C(=N\O)Nc1ccc(C(=O)Oc2ccc(CC(=O)O)n3ncnc23)cc1 [Compound 40]	-0.4
N#Cc1cc(C(=O)Oc2ccc(CC(=O)O)n3ncnc23)ccc1NC(=N)N [Compound 22]	12.3
N=C(NN)c1ccc(C(=O)Oc2ccc(CC(=O)O)n3ncnc23)cc1 [Compound 39]	2.8
N=C(N)Nc1ccc(C(=O)Oc2ccc(CC(=O)O)n3ncnc23)s1 [Compound 10]	99.9

---

SYSTEM NAME: Bovine trypsin (Bos taurus, UniProt P00760)
Construct: purchased Sigma-Aldrich T1426
TEST PROTOCOL: Biochemical Assay of Trypsin (T), H-D-CHA-AR-AMC substrate
CONDITION SUMMARY: compound 10 μM, 15 μM substrate, 0.025 nM Trypsin
ASSAY ENDPOINT: inhibition at 10 µM (%)

COMPOUND	SYSTEM NAME	ASSAY ENDPOINT	ENDPOINT RESULT
N=C(N)Nc1ccc(C(=O)Oc2ccc(CC(=O)O)n3ncnc23)c(Cl)c1	Bovine trypsin (Bos taurus, UniProt P00760)	inhibition at 10 µM	99.9
N=C(N)Nc1ccc(C(=O)Oc2ccc(CC(=O)NC(CCC(=O)O)(CCC(=O)O)CCC(=O)O)n3ncnc23)cc1	Bovine trypsin (Bos taurus, UniProt P00760)	inhibition at 10 µM	100
N=C(N)Nc1ccc(C(=O)Oc2ccc(CC(=O)O)n3ncnc23)c(F)c1	Bovine trypsin (Bos taurus, UniProt P00760)	inhibition at 10 µM	100
C#CCOCC#Cc1cc(NC(=N)N)ccc1C(=O)Oc1ccc(CC(=O)O)n2ncnc12	Bovine trypsin (Bos taurus, UniProt P00760)	inhibition at 10 µM	100
CNC(=N)Nc1ccc(C(=O)Oc2ccc(CC(=O)O)n3ncnc23)cc1	Bovine trypsin (Bos taurus, UniProt P00760)	inhibition at 10 µM	97.7
N=C(N)Nc1ccc(C(=O)Oc2ccc(CC(=O)O)n3ncnc23)c2ccoc12	Bovine trypsin (Bos taurus, UniProt P00760)	inhibition at 10 µM	99.9
N=C(NN)c1ccc(C(=O)Oc2ccc(CC(=O)O)n3ncnc23)cc1	Bovine trypsin (Bos taurus, UniProt P00760)	inhibition at 10 µM	25.5
N=C(N)Nc1ccc(C(=O)Oc2cc(CC(=O)O)cn3ncnc23)cc1	Bovine trypsin (Bos taurus, UniProt P00760)	inhibition at 10 µM	100
N#Cc1cc(C(=O)Oc2ccc(CC(=O)O)n3ncnc23)ccc1NC(=N)N	Bovine trypsin (Bos taurus, UniProt P00760)	inhibition at 10 µM	29.9
N=C(N)Nc1ccc(C(=O)Oc2ccc(CC(=O)O)n3ncnc23)cc1Cl	Bovine trypsin (Bos taurus, UniProt P00760)	inhibition at 10 µM	99.8
N=C(N)Nc1ccc(C(=O)Oc2ccc(CC(=O)NC(CC(=O)O)C(=O)O)n3ccnc23)cc1 (stereo not shown)	Bovine trypsin (Bos taurus, UniProt P00760)	inhibition at 10 µM	100
N=C(N)Nc1ccc(C(=O)Oc2ccc(CC(=O)O)n3ncnc23)c(C(F)(F)F)c1	Bovine trypsin (Bos taurus, UniProt P00760)	inhibition at 10 µM	88.7
N=C(N)Nc1ccc(C(=O)Oc2ccc(CC(=O)O)n3ncnc23)s1	Bovine trypsin (Bos taurus, UniProt P00760)	inhibition at 10 µM	99.8
N=C(N)Nc1ccc(C(=O)Oc2ccc(CC(=O)O)n3ccnc23)cc1	Bovine trypsin (Bos taurus, UniProt P00760)	inhibition at 10 µM	101
N=C(N)Nc1ccc(C(=O)Oc2ccc(CC(=O)NCC(=O)O)n3ncnc23)cc1	Bovine trypsin (Bos taurus, UniProt P00760)	inhibition at 10 µM	100
N#CNC(=N)c1ccc(C(=O)Oc2ccc(CC(=O)O)n3ncnc23)cc1	Bovine trypsin (Bos taurus, UniProt P00760)	inhibition at 10 µM	35.8
N=C(N)Nc1ccc(C(=O)Oc2ccc(CC(=O)O)n3ncnc23)cc1I	Bovine trypsin (Bos taurus, UniProt P00760)	inhibition at 10 µM	45
Cc1cc(C(=O)Oc2ccc(CC(=O)O)n3ncnc23)ccc1NC(=N)N	Bovine trypsin (Bos taurus, UniProt P00760)	inhibition at 10 µM	35.5
COc1cc(C(=O)Oc2ccc(CC(=O)O)n3ncnc23)ccc1NC(=N)N	Bovine trypsin (Bos taurus, UniProt P00760)	inhibition at 10 µM	99.9
N=C1NCCN1c1ccc(C(=O)Oc2ccc(CC(=O)O)n3ncnc23)cc1	Bovine trypsin (Bos taurus, UniProt P00760)	inhibition at 10 µM	93
CC(=N)Nc1ccc(C(=O)Oc2ccc(CC(=O)O)n3ncnc23)cc1	Bovine trypsin (Bos taurus, UniProt P00760)	inhibition at 10 µM	99.7
CN(C(=N)N)c1ccc(C(=O)Oc2ccc(CC(=O)O)n3ncnc23)cc1	Bovine trypsin (Bos taurus, UniProt P00760)	inhibition at 10 µM	98.9
CNC(=N)c1ccc(C(=O)Oc2ccc(CC(=O)O)n3ncnc23)cc1	Bovine trypsin (Bos taurus, UniProt P00760)	inhibition at 10 µM	66.5
N=C(N)Nc1ncc(C(=O)Oc2ccc(CC(=O)O)n3ccnc23)cn1	Bovine trypsin (Bos taurus, UniProt P00760)	inhibition at 10 µM	100
N=C(N)Nc1ncc(C(=O)Oc2ccc(CC(=O)NC(CC(=O)O)C(=O)O)n3ccnc23)cn1 (stereo not shown)	Bovine trypsin (Bos taurus, UniProt P00760)	inhibition at 10 µM	100
